Where do the numbers come from? From paper PMC3817407.

Biological target: T1, ECF20_992
T1 chain: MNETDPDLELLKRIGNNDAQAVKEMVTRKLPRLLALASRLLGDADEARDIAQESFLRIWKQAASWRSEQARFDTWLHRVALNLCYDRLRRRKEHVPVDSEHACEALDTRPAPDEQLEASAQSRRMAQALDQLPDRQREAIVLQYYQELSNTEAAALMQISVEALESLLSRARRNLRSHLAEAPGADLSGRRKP
Label scheme for fold repression: lower than 3 is not fulfilled, 3 and above is fulfilled.

{"BINDER": "AS02_915 (protein) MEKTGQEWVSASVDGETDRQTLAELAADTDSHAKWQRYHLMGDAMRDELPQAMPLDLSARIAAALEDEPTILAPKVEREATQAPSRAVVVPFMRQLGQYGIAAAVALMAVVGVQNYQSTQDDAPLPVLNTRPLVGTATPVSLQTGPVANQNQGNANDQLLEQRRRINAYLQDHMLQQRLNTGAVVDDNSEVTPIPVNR", "DISCRETE_LABEL": "fulfilled"}
{"BINDER": "AS11_987 (protein) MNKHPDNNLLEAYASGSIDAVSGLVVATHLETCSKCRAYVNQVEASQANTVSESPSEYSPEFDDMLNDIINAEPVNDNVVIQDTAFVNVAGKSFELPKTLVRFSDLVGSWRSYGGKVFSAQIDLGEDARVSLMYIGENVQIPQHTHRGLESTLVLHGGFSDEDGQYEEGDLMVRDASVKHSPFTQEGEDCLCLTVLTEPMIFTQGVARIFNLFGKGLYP", "DISCRETE_LABEL": "fulfilled"}
{"BINDER": "AS27_4265 (protein) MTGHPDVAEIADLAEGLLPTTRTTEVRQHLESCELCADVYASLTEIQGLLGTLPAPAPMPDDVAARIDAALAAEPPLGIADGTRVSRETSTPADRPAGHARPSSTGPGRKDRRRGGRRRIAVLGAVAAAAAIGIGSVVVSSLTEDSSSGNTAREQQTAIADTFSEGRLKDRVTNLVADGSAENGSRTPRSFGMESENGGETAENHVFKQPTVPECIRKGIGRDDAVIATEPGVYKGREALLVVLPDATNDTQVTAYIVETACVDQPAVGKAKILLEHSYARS", "DISCRETE_LABEL": "fulfilled"}
{"BINDER": "AS35_3582 (protein) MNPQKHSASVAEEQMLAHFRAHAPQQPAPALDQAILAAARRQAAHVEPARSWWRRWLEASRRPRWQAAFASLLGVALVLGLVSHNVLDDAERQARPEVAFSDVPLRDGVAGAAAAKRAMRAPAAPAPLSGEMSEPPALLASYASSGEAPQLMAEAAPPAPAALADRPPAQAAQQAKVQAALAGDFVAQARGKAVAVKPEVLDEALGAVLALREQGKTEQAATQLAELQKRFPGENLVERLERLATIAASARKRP", "DISCRETE_LABEL": "fulfilled"}
{"BINDER": "AS22_1147 (protein) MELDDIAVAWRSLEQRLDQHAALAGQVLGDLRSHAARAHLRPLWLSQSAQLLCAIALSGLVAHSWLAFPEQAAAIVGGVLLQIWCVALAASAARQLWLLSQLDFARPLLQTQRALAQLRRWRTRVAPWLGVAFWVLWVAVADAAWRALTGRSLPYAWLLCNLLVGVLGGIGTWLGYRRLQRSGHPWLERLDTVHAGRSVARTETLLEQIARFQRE", "DISCRETE_LABEL": "not fulfilled"}
{"BINDER": "AS22_4450 (protein) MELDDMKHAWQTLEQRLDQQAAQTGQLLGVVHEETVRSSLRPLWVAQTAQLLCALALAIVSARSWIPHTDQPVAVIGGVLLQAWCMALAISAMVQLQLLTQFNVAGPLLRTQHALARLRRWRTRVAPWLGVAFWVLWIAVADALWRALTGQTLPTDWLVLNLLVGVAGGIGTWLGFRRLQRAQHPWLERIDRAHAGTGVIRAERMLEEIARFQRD", "DISCRETE_LABEL": "not fulfilled"}
